test: Liquid-liquid extraction from aqueous lithium-containing solution, ICP detection: lithium; conditions: feed B1 (cLi 0.807, cNa 56.12 g/L, pH 11.48); organic phase and phase ratio per example;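 also: component concentrations in the aqueous phase were measured by inductively coupled plasma optical emission spectrometry after shaking and phase separation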
observationType: separation factor of Li/Na

Example entries begin here.
[
  {
    "compound": "CCC(O)C(=O)c1ccccc1 (single isomer, unassigned) [Example 5, 2-hydroxybutyrophenone]",
    "separation factor of Li/Na": 57.0
  },
  {
    "compound": "CCCCCCOc1ccc(C(=O)c2ccccc2)c(O)c1 [Example 8, 4-hyxyloxy-2-hydroxydibenzophenone]",
    "separation factor of Li/Na": 29.5
  },
  {
    "compound": "CC1=NN(c2ccccc2)C(=O)C1C(=O)c1ccccc1 (centres unmarked) [Comparative Example 8, 1-phenyl-3-methyl-4-benzoyl-5-pyrazolone, reference compound]",
    "separation factor of Li/Na": 1.74
  },
  {
    "compound": "CC(=O)c1ccc(OCc2ccccc2)cc1O [Example 6, 4-benzyloxy-2-hydroxyacetophenone]",
    "separation factor of Li/Na": 37.7
  },
  {
    "compound": "COc1ccc(C(=O)c2ccc(OC)cc2O)c(O)c1",
    "separation factor of Li/Na": 146.7
  }
]

separation factor of Li/Na measured on CCC(O)C(=O)c1ccccc1 (single isomer, unassigned) [Example 4, 2-hydroxybutyrophenone] = 29.8

separation factor of Li/Na measured on CCCCCCCOc1ccc(C(=O)c2ccccc2)c(O)c1 [Example 9, 4-heptoxy-2-hydroxydibenzophenone] = 23.6

separation factor of Li/Na measured on CC(O)C(=O)c1ccccc1 (centres unmarked) [Example 3, 2-hydroxypropiophenone] = 14.3
